# Tested on: Streptococcus pneumoniae 1175
# Format: cell-based
# test-parameters: S. pneumoniae 1175 (mefA); microtiter broth dilution
Provide the recorded MIC S. pneumo. 1175 for the entries that follow.

>  <compound>
CC[C@H]1OC(=O)[C@H](C)C(=O)[C@H](C)[C@@H](O[C@@H]2O[C@H](C)C[C@H](N(C)C)[C@H]2O)[C@](C)(OC)C[C@@H](C)C(=O)[C@H](C)[C@H]2N(CC3(O)CN(C(=O)c4cncc5ccccc45)C3)C(=O)O[C@]12C

>  <value-type>
MIC S. pneumo. 1175

>  <value-reported>
0.5 µg/mL

$$$$

I need MIC S. pneumo. 1175 for every entry listed below, if you could help.
1. CCC1OC(=O)C(C)C(=O)C(C)C(OC2OC(C)CC(N(C)C)C2O)C(C)(OC)CC(C)C(=O)C(C)C2N(CC3CCN(Cc4ccnc5ccccc45)CC3)C(=O)OC12C (centres unmarked)
2. CCC1OC(=O)C(C)C(=O)C(C)C(OC2OC(C)CC(N(C)C)C2O)C(C)(OC)CC(C)C(=O)C(C)C2N(CC3CCCN3C(=O)c3ccnc4ncsc34)C(=O)OC12C (centres unmarked)

Response:
1: 0.5 µg/mL; 2: 0.12 µg/mL

I need MIC S. pneumo. 1175 for every entry listed below, if you could help.
1. CC[C@H]1OC(=O)[C@H](C)C(=O)[C@H](C)[C@@H](O[C@@H]2O[C@H](C)C[C@H](N(C)C)[C@H]2O)[C@](C)(OC)C[C@@H](C)C(=O)[C@H](C)[C@H]2N(CC3(C)CN(C(=O)c4cccc5ncccc45)C3)C(=O)O[C@]12C.O=CO
2. CCC1OC(=O)C(C)C(=O)C(C)C(OC2OC(C)CC(N(C)C)C2O)C(C)(OC)CC(C)C(=O)C(C)C2N(CC3CCN(Cc4cccc(OC)n4)C3)C(=O)OC12C (centres unmarked)

Response:
1: 0.25 µg/mL; 2: 0.25 µg/mL

// provenance: patent US7462600B2
